- target_desc: T1, human cANGPTL4 (C-terminal fragment of Angiopoietin-like 4 protein) (human, UniProt Q9BY76 186-406, limits assumed)
- T1 construct: domain: C-terminal fragment (cANGPTL4); Purified cANGPTL4 was immobilised by amine coupling on the CM5 chip for SPR and on carboxylated microwell plates for ELISA; also called purified cANGPTL4; human cANGPTL4 antigen
- T1 sequence (looked up): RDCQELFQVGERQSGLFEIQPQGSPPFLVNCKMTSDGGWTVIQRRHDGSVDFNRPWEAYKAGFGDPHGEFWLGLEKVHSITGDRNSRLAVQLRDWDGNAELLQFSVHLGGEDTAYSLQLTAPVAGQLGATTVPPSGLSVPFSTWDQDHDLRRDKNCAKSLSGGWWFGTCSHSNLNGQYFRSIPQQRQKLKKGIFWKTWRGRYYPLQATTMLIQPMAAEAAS
- assay_overview: SPR (BIACORE 3000), cANGPTL4 amine-coupled to CM5 chip, antibody as analyte
property_label: koff (s⁻¹)

- binder: "Antuzumab 2 (antibody, V domains shown, Humanized monoclonal antibody made in CHO cells; also called ANG50; ANGH4 + ANGK4) VH: QITLKESGPTLVKPTQTLTLTCTFSGFSLSTSGMGVGWIRQPPGKALEWLAHIWWDDDKYYNPSLKSRLTITKDTSKNQVDLTMTFMDPWDTATYYCAHKDYGSSYDYWGQGTLVTVSS VL: DIQMTQSPSSLSASVGDRVTITCKASQSVDYDGDSYLNWYQQKPGKAPNLLIYTASNLESGVPSRFSGSGSGTDFTLTISSLQPEDFATYYCQQSNEDPWTFGEGTKVEIK"
  reported_value: 0.000764
